# Tested on: SF-295
# METHOD: Cytotoxicity against human SF-295 cells assessed as cell viability at 10 uM incubated for 48 hrs by sulforhodamine B assay relative to control
# Assay type: functional
# EXPERIMENTAL CONDITIONS: read-out: Activity
hey, just use rule met if measured viability at 10 µM is less than 70%, otherwise rule not met

See these solved cases before continuing.
O=C(NCCCNc1nccc(-c2c(-c3cccc(F)c3)nc3sccn23)n1)c1ccc(C(F)(F)F)cc1
rule not met
O=S(=O)(NCCNc1nccc(-c2c(-c3cccc(F)c3)nc3sccn23)n1)c1ccc(F)cc1
rule met
O=S(=O)(NCCCNc1nccc(-c2c(-c3cccc(F)c3)nc3sccn23)n1)c1ccc(F)cc1
rule not met
O=C(NCCNc1nccc(-c2c(-c3cccc(F)c3)nc3sccn23)n1)c1c(F)cccc1F
rule met
O=S(=O)(NCCCNc1nccc(-c2c(-c3cccc(F)c3)nc3sccn23)n1)c1cccc(F)c1
rule met
Cc1ccc(S(=O)(=O)NCCCNc2nccc(-c3c(-c4cccc(F)c4)nc4sccn34)n2)cc1
rule not met
O=S(=O)(NCCCNc1nccc(-c2c(-c3cccc(F)c3)nc3sccn23)n1)c1cccc2ccccc12
rule met
O=S(=O)(NCCNc1nccc(-c2c(-c3cccc(F)c3)nc3sccn23)n1)c1cccc2ccccc12
rule not met

Query: is_below(viability at 10 µM, 70%) for O=C(NCCCNc1nccc(-c2c(-c3cccc(F)c3)nc3sccn23)n1)C1CCCCC1 ?
Result: rule not met

Query: Queued: O=S(=O)(NCCNc1nccc(-c2c(-c3cccc(F)c3)nc3sccn23)n1)c1ccc(Cl)cc1
Result: rule met

Query: Queued: O=S(=O)(NCCNc1nccc(-c2c(-c3cccc(F)c3)nc3sccn23)n1)c1ccc(C(F)(F)F)cc1
Result: rule not met

Query: Queued: O=C(NCCCNc1nccc(-c2c(-c3cccc(F)c3)nc3sccn23)n1)c1ccc(F)cc1
Result: rule not met

Query: Queued: O=S(=O)(NCCCNc1nccc(-c2c(-c3cccc(F)c3)nc3sccn23)n1)c1ccc(C(F)(F)F)cc1
Result: rule not met

----------
viability at 10 µM: recorded values
# Test system: ACHN
# METHOD: Cytotoxicity against human ACHN cells assessed as cell viability at 10 uM incubated for 48 hrs by sulforhodamine B assay relative to control
# Format: functional
# EXPERIMENTAL CONDITIONS: read-out: Activity
Reply with the number, then its unit.

O=S(=O)(NCCNc1nccc(-c2c(-c3cccc(F)c3)nc3sccn23)n1)c1cccc2ccccc12
80.1%
O=S(=O)(NCCCNc1nccc(-c2c(-c3cccc(F)c3)nc3sccn23)n1)c1ccc(F)cc1
64.2%
O=S(=O)(NCCCNc1nccc(-c2c(-c3cccc(F)c3)nc3sccn23)n1)c1ccc(Cl)cc1
60%

Query: Looking for the measured viability at 10 µM of O=C(NCCNc1nccc(-c2c(-c3cccc(F)c3)nc3sccn23)n1)c1ccc(C(F)(F)F)cc1 , can you help?
Result: 42.6%

Query: Queued: O=S(=O)(NCCNc1nccc(-c2c(-c3cccc(F)c3)nc3sccn23)n1)c1ccc(Br)cc1
Result: 30.2%

Query: Queued: O=S(=O)(NCCCNc1nccc(-c2c(-c3cccc(F)c3)nc3sccn23)n1)c1cccc2ccccc12
Result: 34.7%

Query: Queued: O=S(=O)(NCCNc1nccc(-c2c(-c3cccc(F)c3)nc3sccn23)n1)c1ccc(F)cc1
Result: 35.8%

Query: Queued: O=S(=O)(NCCCNc1nccc(-c2c(-c3cccc(F)c3)nc3sccn23)n1)c1ccc(O)cc1
Result: 43.7%

Query: Queued: O=S(=O)(NCCCNc1nccc(-c2c(-c3cccc(F)c3)nc3sccn23)n1)c1cccc(F)c1
Result: 42.5%

Query: Queued: O=S(=O)(NCCCNc1nccc(-c2c(-c3cccc(F)c3)nc3sccn23)n1)c1ccc(Br)cc1
Result: 50.3%
